System: RARb:RXRa (NR concentration 270 nM, RXRa partner concentration 90 nM)
Test: PBM binding z-score (relative to random genomic background probes); higher = stronger binding; sequences stand for … in GC…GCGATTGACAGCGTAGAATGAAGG
reported endpoint: PBM binding z-score
The answer should be a number; do not append a unit.

Input: What value of PBM binding z-score has been reported for the following sequence? `CGAACTAGGTCATCCAGGACAGTAAATACATTGA`
Output: 3.89

Input: Name the recorded PBM binding z-score for `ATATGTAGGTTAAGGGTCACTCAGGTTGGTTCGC` .
Output: 3.95

Input: Using the record for `GCTTGTAGCTCAAGGTTAAGAAAGACTAAGCTAA` , report its PBM binding z-score.
Output: 0.721

Input: Need PBM binding z-score of `CTCGAAAGGTCGGTAGAGGTGAGTATACGGATAA` , thanks.
Output: 3.13

Input: Any idea what PBM binding z-score was measured for `ATACCAAGGTGATCGTGAGGTCGGTGATACTAAC` ?
Output: 1.11

Input: Find the recorded PBM binding z-score belonging to `CCTGCTAGGTCACGGTCAGCTAATCTACAGTATG` and report it.
Output: 4.46
